Each recorded value in this set is attributed to PubChem BioAssay (NCI).

system: OVCAR-5 ovarian; test: NCI tumour cell line growth inhibition, 48 h
property: TGI

Challenge: Dear colleague, I am looking for the recorded TGI of the following molecule: O=C(O)CNCc1c2ccccc2[n+]([O-])c2ccccc12
Response given: > 100 µM

Challenge: Please do the same for N#CC(C#N)=C1CCCCc2ccc([N+](=O)[O-])cc21 as well.
Response given: > 100 µM

Challenge: Please do the same for C=CCN(N=O)C(=O)N(CCC)CCCCC(NC(C)=O)C(=O)NCc1ccccc1 (stereo unspecified) as well.
Response given: > 100 µM

Challenge: Please do the same for Cc1ccnc2nc3[nH]c4ccccc4c3cc12 as well.
Response given: > 100 µM

Challenge: Please do the same for CCN(CC)c1ccc2c(c1)N=C1N=CC=CN1C2(c1ccc(N(C)C)cc1)c1ccc(N(C)C)cc1 as well.
Response given: 27.4 µM

Challenge: Please do the same for CC(C)=CCC[C@@H](C)C1=C(Nc2ccccc2)C(O)=C(C)C(=O)C1=O as well.
Response given: > 43.5 µM
